Attribute: kon
# STUDY TARGET: T1, Biotinylated human ICOS protein (human, UniProt Q9Y6W8 21-140, limits assumed, biotinylated (sites not given))
# T1 construct: Captured on the NLC chip in the avidity SPR
# T1 sequence: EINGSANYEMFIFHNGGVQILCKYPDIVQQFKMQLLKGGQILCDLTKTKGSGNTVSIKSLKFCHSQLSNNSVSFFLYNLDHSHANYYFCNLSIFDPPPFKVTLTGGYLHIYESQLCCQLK
# MEASUREMENT DESCRIPTION: SPR ProteOn avidity format, biotinylated human ICOS on NLC chip; calculated on-rate
Quick note: give the figure in M⁻¹ s⁻¹, leave out the unit.

BINDER	DISPLAY UNIT	kon
STIM001_457_LAGA (bispecific antibody, V domains shown, not shown: a dimerising Fc or GST, LAGA variant of STIM001_457) VH: QVQVVQSGAEVKKPGASVKVSCKASGYTFSTFGITWVRQAPGQGLEWMGWISAYNGDTNYAQNLQGRVIMTTDTSTSTAYMELRSLRSDDTAVYYCARSSGHYYYYGMDVWGQGTTVTVSS VL: DIVMTQSPLSLPVTPGEPASISCRSSQSLLHSNEYNYLDWYLQKPGQSPQLLIFLGSNRASGVPDRFSGSGSGTDFTLKITRVEAEDVGIYYCMQSLQTPLTFGGGTKVEIK	M⁻¹ s⁻¹	31300
STIM003_457_LAGA (bispecific antibody, V domains shown, not shown: a dimerising Fc or GST, LAGA variant of STIM003_457) VH: EVQLVESGGGVVRPGGSLRLSCVASGVTFDDYGMSWVRQAPGKGLEWVSGINWNGGDTDYSDSVKGRFTISRDNAKNSLYLQMNSLRAEDTALYYCARDFYGSGSYYHVPFDYWGQGILVTVSS VL: EIVLTQSPGTLSLSPGERATLSCRASQSVSRSYLAWYQQKRGQAPRLLIYGASSRATGIPDRFSGDGSGTDFTLSISRLEPEDFAVYYCHQYDMSPFTFGPGTKVDIK	M⁻¹ s⁻¹	284000
STIM003_289_LAGA (bispecific antibody, V domains shown, not shown: a dimerising Fc or GST, LAGA variant of STIM003_289) VH: EVQLVESGGGVVRPGGSLRLSCVASGVTFDDYGMSWVRQAPGKGLEWVSGINWNGGDTDYSDSVKGRFTISRDNAKNSLYLQMNSLRAEDTALYYCARDFYGSGSYYHVPFDYWGQGILVTVSS VL: EIVLTQSPGTLSLSPGERATLSCRASQSVSRSYLAWYQQKRGQAPRLLIYGASSRATGIPDRFSGDGSGTDFTLSISRLEPEDFAVYYCHQYDMSPFTFGPGTKVDIK	M⁻¹ s⁻¹	477000

Form: binder = STIM001_289_LAGA (bispecific antibody, V domains shown, not shown: a dimerising Fc or GST) VH: QVQVVQSGAEVKKPGASVKVSCKASGYTFSTFGITWVRQAPGQGLEWMGWISAYNGDTNYAQNLQGRVIMTTDTSTSTAYMELRSLRSDDTAVYYCARSSGHYYYYGMDVWGQGTTVTVSS VL: DIVMTQSPLSLPVTPGEPASISCRSSQSLLHSNEYNYLDWYLQKPGQSPQLLIFLGSNRASGVPDRFSGSGSGTDFTLKITRVEAEDVGIYYCMQSLQTPLTFGGGTKVEIK ; kon = 13900
